biological target: D(1A) dopamine receptor (Homo sapiens) (UniProt P21728); test: D1 CRE-luciferase signal change, two-sided – cell-based, HEK293 D1, dopamine EC30, D1 allosteric modulator project, primary screen (AID 641); details: dopamine EC30 potentiation, at 10 µM, actives deviate in either direction
Sequence (P21728 whole entry, looked up): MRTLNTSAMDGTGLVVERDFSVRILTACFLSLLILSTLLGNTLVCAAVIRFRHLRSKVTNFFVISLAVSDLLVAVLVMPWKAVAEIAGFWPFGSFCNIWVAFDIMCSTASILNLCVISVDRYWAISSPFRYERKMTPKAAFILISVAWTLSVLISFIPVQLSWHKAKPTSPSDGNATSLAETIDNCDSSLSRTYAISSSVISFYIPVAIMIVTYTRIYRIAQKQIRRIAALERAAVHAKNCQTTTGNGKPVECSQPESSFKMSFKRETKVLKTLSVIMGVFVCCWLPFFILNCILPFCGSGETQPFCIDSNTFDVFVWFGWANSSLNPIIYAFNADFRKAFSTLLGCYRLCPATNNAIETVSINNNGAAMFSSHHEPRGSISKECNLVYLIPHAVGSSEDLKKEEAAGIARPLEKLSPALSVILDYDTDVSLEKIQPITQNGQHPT
Among all 58,000 compounds or so, about 3,400 (5.9%) were called active.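 How the source made its calls: active means luminescence count or its row- and column-corrected plate score outside the 99.7% band of the plate's sample wells, on either side; inactive means the rest.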 For the sample, actives were picked, then their nearest neighbours and some compounds at random.
Just give me one of these, please: y (active), n (inactive)

Would you please look over these solved cases?
# molecule, class-assignment
rows = [
    ("CC(Nc1nc(N2CCCC2)nc2ccccc12)c1ccccc1 (stereo unspecified)", "y"),
    ("Cc1ccc(N2C(=O)CC(NCc3ccc4c(c3)OCO4)C2=O)cc1Cl (stereo unspecified)", "n"),
    ("Cc1ccc(S(=O)(=O)N(C)CC(=O)N2CCc3ccccc32)cc1", "n"),
]

stdin: For C=C1c2cc(CC)ccc2NC(=O)N1c1ccc(C)cc1 , what call appears in the results of this test?
stdout: n

stdin: For C=C(C)Cn1c(N2CCN(CC)CC2)nc2c1c(=O)[nH]c(=O)n2C , what call appears in the results of this test?
stdout: n

stdin: For Cc1ccc(C(CC(=O)O)Nc2nc(N3CCCCC3)nc(N3CCCCC3)n2)cc1 (stereo unspecified) , what call appears in the results of this test?
stdout: n

All figures here come from PubChem BioAssay AID641.
